Measured Solubility [μmol per ml], listed per entry.
Protocol details: Solubility screening in trehalose matrices pH 2.65 to 7.03;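 further: test items are peptides, each checked for solubility in every trehalose matrix, the matrices made up in distilled deionised water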
Format: physicochemical
Assay setup: 10 mM sodium citrate and 260 mM trehalose dihydrate, pH 6.01
Ends that are not written are not given here.

{"Seq text": "FNYETETTSVIPAARK [BIR1I]", "Solubility [μmol per ml] / μmol per ml": 3.522}
{"Seq text": "PGTIKKISFPEGFPFKYV [Bir04]", "Solubility [μmol per ml] / μmol per ml": 4.261}
{"Seq text": "SNEIKIVATPEGGSILK [Bir07C]", "Solubility [μmol per ml] / μmol per ml": 0.174}
{"Seq text": "KEMGETLLRAVESYLLAHS [BIR09R]", "Solubility [μmol per ml] / μmol per ml": 1.993}
{"Seq text": "ETLLRAVESYLLAHSDAY [Bir09]", "Solubility [μmol per ml] / μmol per ml": 0.426}
{"Seq text": "AKYMVIQGEPGRVIRGK [Bir12B]", "Solubility [μmol per ml] / μmol per ml": 1.002}
{"Seq text": "PAARMFKAFILEGDKLVPK [Bir02J]", "Solubility [μmol per ml] / μmol per ml": 0.150}
{"Seq text": "AERERIFKRFDANGEGK [Bir16A]", "Solubility [μmol per ml] / μmol per ml": 11.080}

Attribution: patent US9017689B2
